Molecular target: human CYP17 in LNCap-CYP17 cells (Homo sapiens, UniProt P05093)
Sequence (P05093 1-508): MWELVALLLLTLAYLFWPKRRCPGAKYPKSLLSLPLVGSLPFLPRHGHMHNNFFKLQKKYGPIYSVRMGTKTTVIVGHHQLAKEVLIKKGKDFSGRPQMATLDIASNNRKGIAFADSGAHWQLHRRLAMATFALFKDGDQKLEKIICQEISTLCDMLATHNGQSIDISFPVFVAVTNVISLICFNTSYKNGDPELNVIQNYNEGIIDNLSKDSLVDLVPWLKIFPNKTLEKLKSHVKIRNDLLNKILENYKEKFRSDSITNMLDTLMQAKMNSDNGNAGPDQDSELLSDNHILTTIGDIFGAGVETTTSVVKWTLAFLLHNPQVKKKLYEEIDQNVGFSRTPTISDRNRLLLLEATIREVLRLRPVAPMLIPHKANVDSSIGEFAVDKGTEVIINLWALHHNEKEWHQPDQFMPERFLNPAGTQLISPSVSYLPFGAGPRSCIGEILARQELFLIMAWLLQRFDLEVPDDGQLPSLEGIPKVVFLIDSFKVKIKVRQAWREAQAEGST
Experiment: Cell-based human CYP17 inhibition assay, LNCap-CYP17 cells
Settings: 16 hours
pIC50: −log10 of the molar value.
Observation type: pIC50

[[record]]
molecule = "COc1ccc(-c2ccc(C(C)(O)c3ccncc3)nc2)cc1 (racemic) [Example 1]"
observation_type = "pIC50"
reported_value = "5.00 to 6.70"

